Values were extracted from patent US10227312B2.

TGT: glucosylceramide synthase (GCS) (Canis lupus familiaris, UniProt A0A8I3MXG6)
Sequence (A0A8I3MXG6 1-394): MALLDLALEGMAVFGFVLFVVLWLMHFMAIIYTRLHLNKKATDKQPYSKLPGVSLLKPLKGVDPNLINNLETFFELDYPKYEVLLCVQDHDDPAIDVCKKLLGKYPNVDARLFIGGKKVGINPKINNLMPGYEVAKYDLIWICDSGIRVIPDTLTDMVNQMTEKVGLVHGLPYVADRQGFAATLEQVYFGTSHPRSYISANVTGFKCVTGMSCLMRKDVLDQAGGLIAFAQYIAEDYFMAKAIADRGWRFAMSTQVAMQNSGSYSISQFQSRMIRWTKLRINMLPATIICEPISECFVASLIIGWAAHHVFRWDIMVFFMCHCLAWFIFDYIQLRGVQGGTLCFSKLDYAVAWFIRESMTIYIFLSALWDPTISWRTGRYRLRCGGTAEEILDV
PROTOCOL SUMMARY: GCS Enzymatic Assay (MDCK lysates)
ASSAY CONDITIONS: MDCK cell lysate, C6-NBD-Ceramide, 37° C. for 1 hour, LC/MS; read-out: Assay 1 (Enzyme Assay; MDCK lysates) IC50
pIC50: −log10 of the molar value.
PROPERTY: pIC50

Past entries and their recorded results:
O=C(N[C@H](CN1CCCC1)[C@H](O)c1ccc(OC2CC2)cc1)C1=NOCc2c1ccc1cc(F)ccc21
> 8.00
CN(C(=O)C1=NCCc2cc(-c3ccc(F)cc3)ccc21)[C@H](CN1CCCC1)[C@H](O)c1ccc(OC2CC2)c(Cl)c1
7.00 to 8.00
CN(C(=O)C1=NOCc2cc(-c3ccc(F)cc3)ccc21)[C@H](CN1CCCC1)[C@H](O)c1ccc(OC2CC2)c(Cl)c1
7.00 to 8.00

### Prompt Requested field: pIC50. Item: O=C(N[C@H](CN1CCCC1)[C@H](O)c1ccc(OC2CC2)cc1)C1=NOCc2c1ccc1sc(Cl)cc21
### Response 7.00 to 8.00

### Prompt Requested field: pIC50. Item: O=C(N[C@H](CN1CCCC1)[C@H](O)c1ccc(OC2CC2)c(Cl)c1)C1=NOCc2c1ccc1cc(F)ccc21
### Response > 8.00

### Prompt Requested field: pIC50. Item: O=C(N[C@H](CN1CCCC1)[C@H](O)c1ccc(OC2CC2)c(Cl)c1)C1=NOCc2cc(-c3ccc(Cl)s3)ccc21
### Response 7.00 to 8.00

### Prompt Requested field: pIC50. Item: O=C(N[C@H](CN1CCC1)[C@H](O)c1ccc(OC2CC2)cc1)C1=NCCc2cc(-c3ccc(F)cc3)ccc21
### Response 7.00 to 8.00

----------
TGT: glucosylceramide synthase (GCS) (Canis lupus familiaris)
PROTOCOL SUMMARY: GCS Enzymatic Assay (MDCK lysates)
ASSAY CONDITIONS: MDCK cell lysate, C6-NBD-Ceramide, 37° C. for 1 hour, LC/MS; read-out: Assay 1 (Enzyme Assay; MDCK lysates) IC50
pIC50: −log10 of the molar value.
PROPERTY: pIC50

Past entries and their recorded results:
O=C(N[C@H](CN1CCCC1)[C@H](O)c1ccc(OC2CC2)cc1)C1=NOCc2cc(-c3ccc(F)cc3)ccc21
7.00 to 8.00
O=C(N[C@H](CN1CCCC1)[C@H](O)c1ccc(OC2CC2)c(F)c1)C1=NCCc2cc(-c3ccc(F)cc3)ccc21
7.00 to 8.00

Next up:
### Prompt Lookup: pIC50 / glucosylceramide synthase (GCS) (Canis lupus familiaris) / O=C(N[C@H](CN1CCC1)[C@H](O)c1ccc(OC2CC2)cc1)C1=NOCc2c1ccc1cc(F)ccc21
### Response 7.00 to 8.00

----------
TGT: glucosylceramide synthase (GCS) (Canis lupus familiaris, UniProt A0A8I3MXG6)
PROTOCOL SUMMARY: GCS Enzymatic Assay (MDCK lysates)
Assay type: biochemical, canine
ASSAY CONDITIONS: MDCK cell lysate, C6-NBD-Ceramide, 37° C. for 1 hour, LC/MS; read-out: Assay 1 (Enzyme Assay; MDCK lysates) IC50
PROPERTY: IC50

CC1(C)ON=C(C(=O)N[C@H](CN2CCCC2)[C@H](O)c2ccc(OC3CC3)c(Cl)c2)c2ccc(-c3ccc(F)cc3)cc21
100 to 1000 nM
O=C(N[C@H](CN1CCCC1)[C@H](O)c1ccc(OC2CC2)c(Cl)c1)C1=NOCc2c1ccc1ccccc21
< 10 nM
O=C(N[C@H](CN1CCC1)[C@H](O)c1ccc(OC2CC2)c(Cl)c1)C1=NOCc2c1sc1cc(Cl)ccc21
100 to 1000 nM

### Prompt Requested field: IC50. Item: CC1(C)Cc2cc(-c3ccc(F)cc3)ccc2C(C(=O)N[C@H](CN2CCCC2)[C@H](O)c2ccc(OC3CC3)c(Cl)c2)=N1
### Response 100 to 1000 nM

### Prompt Requested field: IC50. Item: O=C(N[C@H](CN1CCC1)[C@H](O)c1ccc(OC2CC2)c(Cl)c1)C1=NOCc2cc(-c3ccc(F)cc3)ccc21
### Response 10 to 100 nM

### Prompt Requested field: IC50. Item: CN(C(=O)C1=NOCc2cc(-c3ccc(Cl)s3)ccc21)[C@H](CN1CCCC1)[C@H](O)c1ccc(OC2CC2)c(F)c1
### Response 10 to 100 nM

### Prompt Requested field: IC50. Item: O=C(N[C@H](CN1CCCC1)[C@H](O)c1ccc(OC2CC2)c(Cl)c1)C1OCCc2cc(-c3ccc(F)cc3)ccc21 (some centres unmarked)
### Response 100 to 1000 nM

### Prompt Requested field: IC50. Item: O=C(N[C@H](CN1CCCC1)[C@H](O)c1ccc(OC2CC2)c(F)c1)C1=NOCc2cc(-c3ccc(Cl)s3)ccc21
### Response < 10 nM

### Prompt Requested field: IC50. Item: CN(C(=O)C1=NOCc2cc(-c3ccc(F)cc3)ccc21)[C@H](CN1CCCC1)[C@H](O)c1ccc(OC2CC2)c(F)c1
### Response < 10 nM

### Prompt Requested field: IC50. Item: O=C(N[C@H](CN1CCCC1)[C@H](O)c1ccc(OC2CC2)c(Cl)c1)C1=NOCc2c1ccc1cccnc21
### Response < 10 nM

### Prompt Requested field: IC50. Item: O=C(N[C@H](CN1CCCC1)[C@H](O)c1cc(F)c2c(c1)OCCO2)C1=NOCc2cc(-c3ccc(F)cc3)ccc21
### Response < 10 nM

### Prompt Requested field: IC50. Item: O=C(N[C@H](CN1CCCC1)[C@H](O)c1ccc(OC2CC2)c(Cl)c1)C1=NOCc2cc(OCC3CCCCC3)ccc21
### Response < 10 nM

### Prompt Requested field: IC50. Item: Cn1ncc2ccc3c(c21)CON=C3C(=O)N[C@H](CN1CCCC1)[C@H](O)c1ccc(OC2CC2)c(F)c1
### Response < 10 nM

### Prompt Requested field: IC50. Item: Cn1ncc2ccc3c(c21)CON=C3C(=O)N[C@H](CN1CCCC1)[C@H](O)c1ccc(OC2CC2)c(Cl)c1
### Response < 10 nM

### Prompt Requested field: IC50. Item: O=C(N[C@H](CN1CCC1)[C@H](O)c1ccc(OC2CC2)c(F)c1)C1=NOCc2cc(-c3ccc(F)cc3)ccc21
### Response < 10 nM
